- Test system: GTPase KRas (Homo sapiens), P01116 [G12C]
- Protocol Details: Displacement of [acrylamide-2,3-3H2]-N-(3-fluoro-4-(2-methyl-3-(5-methyl-1H- indazole-4-yl)-1H-pyrrolo[ 2,3-b]pyridin-1-yl)-phenyl from KRAS G12C mutant (unknown origin) assessed as ratio of Kinact/Ki by competitive scintillation proximity assay
Reported Ratio by item:
API: value field is a number in mM⁻¹ s⁻¹; no unit string.

Solved cases below.
Structure: C=CC(=O)N1CC2(CC(n3nc(-c4cccnc4)c(-c4c(Cl)c(C)cc5[nH]ncc45)c3C)C2)C1
Value Observed: 10
--
Structure: C=CC(=O)Nc1ccc(-c2nn(C(C)C)c(-c3c(C)ccc4[nH]ncc34)c2C)c(F)c1
Value Observed: 0.2
--
Structure: C=CC(=O)N1CC2(CC(n3nc(-c4ccc5[nH]ncc5c4)c(-c4c(Cl)c(C)cc5[nH]ncc45)c3C)C2)C1
Value Observed: 116

Problem: # lookup: Ratio of `C=CC(=O)N1CC2(CC(n3nc(-c4cccnc4)c(-c4c(Cl)c(C)cc5[nH]ncc45)c3C(F)F)C2)C1`
Solution: 3

Problem: Quick one: `C=CC(=O)N1CC2(CC(n3nc(-c4ccccn4)c(-c4c(Cl)c(C)cc5[nH]ncc45)c3C)C2)C1`
Solution: 7

Problem: And for `C=CC(=O)N1CC2(CC(n3nc(C4CCCCC4)c(-c4c(C)ccc5[nH]ncc45)c3C)C2)C1` ?
Solution: 0.3

Problem: For `C=CC(=O)N1CC2(CC(n3nc(-c4ccc5nn(CCOC)cc5c4)c(-c4c(Cl)c(C)cc5[nH]ncc45)c3C)C2)C1` then?
Solution: 225

Problem: Okay, and `C=CC(=O)Nc1ccc(-n2nc(C)c(-c3c(C)ccc4[nH]ncc34)c2C)c(F)c1` ?
Solution: 0.5
